Tgt: RARα (Homo sapiens)
Sequence (P10276 whole entry): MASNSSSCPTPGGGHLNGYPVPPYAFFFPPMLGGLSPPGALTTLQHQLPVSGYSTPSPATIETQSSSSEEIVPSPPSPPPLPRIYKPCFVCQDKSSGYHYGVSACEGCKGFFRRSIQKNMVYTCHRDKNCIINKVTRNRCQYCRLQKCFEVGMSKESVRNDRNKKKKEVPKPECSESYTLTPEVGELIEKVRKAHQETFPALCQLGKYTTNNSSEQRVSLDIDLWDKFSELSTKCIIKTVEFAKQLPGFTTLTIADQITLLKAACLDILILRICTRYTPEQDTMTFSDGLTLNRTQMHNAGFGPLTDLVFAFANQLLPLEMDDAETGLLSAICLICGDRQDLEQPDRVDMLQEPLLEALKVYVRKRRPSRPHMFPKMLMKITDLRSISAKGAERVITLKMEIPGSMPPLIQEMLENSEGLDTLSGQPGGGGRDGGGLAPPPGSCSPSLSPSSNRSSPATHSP
Experiment notes: Co-transfection assay
Type: cell-based
Condition context: read-out: RARα Pot
Quantity name: EC50 (nM)
Give the value in nM but do not write nM after it.

Data point: `CC(/C=C/C=C(\C)c1cc(C(F)(F)F)cc(C(F)(F)F)c1)=C\C(=O)O` ; EC50 = 3

Data point: `C/C(=C/C=C/C(C)=C/C(=O)O)c1cc(C(C)C)cc(C(C)C)c1` ; EC50 = 65

Data point: `C/C(=C/C=C/C(C)=C/C(=O)O)c1cc(C(C)(C)C)cc(C(C)(C)C)c1` ; EC50 = 59

Data point: `CC(/C=C/C=C1\CCOc2c1cc(C(C)(C)C)cc2C(C)(C)C)=C\C(=O)O` ; EC50 = 5

----------
Tgt: RXRα (Homo sapiens)
Sequence (P19793 whole entry): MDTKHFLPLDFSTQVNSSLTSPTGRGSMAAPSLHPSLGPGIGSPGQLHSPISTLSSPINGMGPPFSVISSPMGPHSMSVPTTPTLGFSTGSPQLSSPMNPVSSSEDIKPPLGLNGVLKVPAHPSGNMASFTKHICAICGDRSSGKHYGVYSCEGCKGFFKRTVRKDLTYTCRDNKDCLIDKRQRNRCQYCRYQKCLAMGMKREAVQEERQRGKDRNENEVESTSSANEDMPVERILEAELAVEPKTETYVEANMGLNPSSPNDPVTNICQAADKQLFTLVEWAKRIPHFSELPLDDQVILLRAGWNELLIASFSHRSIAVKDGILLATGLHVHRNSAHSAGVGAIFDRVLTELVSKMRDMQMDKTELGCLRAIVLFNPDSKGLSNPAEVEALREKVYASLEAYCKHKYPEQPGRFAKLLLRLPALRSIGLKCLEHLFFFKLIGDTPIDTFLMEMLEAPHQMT
Quantity name: pKd
Just so you know, pKd here is -log10 of the concentration in molar units; reply with that number alone.

Data point: `CC(/C=C/C=C(\C)c1cc(C(C)(C)C)cc(C(C)(C)C)c1)=C\C(=O)O` ; pKd = 6.57

----------
Please go through the items and note down their log10 of EC50.
Tgt: RARβ (Homo sapiens, UniProt P10826)
Sequence (P10826 1-448 isoform P10826-2): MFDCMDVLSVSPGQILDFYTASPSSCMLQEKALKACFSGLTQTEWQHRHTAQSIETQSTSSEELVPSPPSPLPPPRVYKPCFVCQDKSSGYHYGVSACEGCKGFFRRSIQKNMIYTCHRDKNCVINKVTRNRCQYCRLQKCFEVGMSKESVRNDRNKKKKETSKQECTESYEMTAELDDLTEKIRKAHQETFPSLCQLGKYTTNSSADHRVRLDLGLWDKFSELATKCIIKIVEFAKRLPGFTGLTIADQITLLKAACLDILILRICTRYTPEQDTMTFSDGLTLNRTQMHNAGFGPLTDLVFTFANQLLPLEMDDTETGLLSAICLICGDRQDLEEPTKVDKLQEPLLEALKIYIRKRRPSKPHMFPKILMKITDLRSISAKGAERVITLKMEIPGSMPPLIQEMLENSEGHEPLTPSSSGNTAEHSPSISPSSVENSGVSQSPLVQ
Experiment notes: Co-transfection assay
Format: cell-based
Condition context: read-out: RARβ Pot
A difference of one corresponds to tenfold EC50; all values are log10 with EC50 in nM.

Data point: `C/C(=C/C=C/C(C)=C/C(=O)O)c1cc(C(C)(C)C)cc(C(C)(C)C)c1` ; log10 of EC50 = 1.36

Data point: `COc1c(C(C)(C)C)cc(/C(C)=C/C=C/C(C)=C/C(=O)O)cc1C(C)(C)C` ; log10 of EC50 = 0.00

Data point: `C/C(=C/C=C/C(C)=C/C(=O)O)c1cc(C(C)C)cc(C(C)C)c1` ; log10 of EC50 = 1.34

Data point: `CC(/C=C/C=C1\CCOc2c1cc(C(C)(C)C)cc2C(C)(C)C)=C\C(=O)O` ; log10 of EC50 = 0.48

Data point: COc1ccc(/C(C)=C/C=C/C(C)=C/C(=O)O)cc1OC [A, reference compound] ; log10 of EC50 = 3.17

Data point: `CC(/C=C/C=C(\C)c1cc(C(C)(C)C)cc(C(C)(C)C)c1)=C\C(=O)O` ; log10 of EC50 = 0.00

Data point: `CC(/C=C/C=C(\C)c1cc(C(F)(F)F)cc(C(F)(F)F)c1)=C\C(=O)O` ; log10 of EC50 = 0.00

----------
Tgt: UniProtKB P10276
Experiment notes: Co-transfection assay
Assay type: cell-based
Condition context: CV-1 cells, pRShRARα, D-MTV-LUC reporter, 40 hours; potency = EC50; read-out: RARα Pot
Quantity name: pEC50
Just so you know, pEC50 here is -log10 of the concentration in molar units; reply with that number alone.

Data point: `CC(/C=C/C=C(\C)c1cc(C(C)(C)C)cc(C(C)(C)C)c1)=C\C(=O)O` ; pEC50 = 8.40

----------
Please go through the items and note down their EC50.
Tgt: RXRγ (Mus musculus)
Sequence (P28705 whole entry): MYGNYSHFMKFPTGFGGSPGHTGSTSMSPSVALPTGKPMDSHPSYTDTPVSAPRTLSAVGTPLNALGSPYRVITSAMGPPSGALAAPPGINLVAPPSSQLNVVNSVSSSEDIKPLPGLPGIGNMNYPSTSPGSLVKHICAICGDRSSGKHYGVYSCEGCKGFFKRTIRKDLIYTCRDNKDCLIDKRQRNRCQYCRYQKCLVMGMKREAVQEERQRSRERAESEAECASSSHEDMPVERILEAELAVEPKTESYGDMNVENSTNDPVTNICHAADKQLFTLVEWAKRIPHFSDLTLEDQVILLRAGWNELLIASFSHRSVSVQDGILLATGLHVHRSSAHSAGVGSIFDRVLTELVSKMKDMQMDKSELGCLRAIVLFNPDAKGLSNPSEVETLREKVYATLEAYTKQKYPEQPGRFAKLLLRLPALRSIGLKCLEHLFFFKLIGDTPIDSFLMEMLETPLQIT
Experiment notes: Co-transfection assay
Type: cell-based
Condition context: read-out: RXRγ Pot

Data point: COc1cc(C)c(/C=C/C=C/C=C(\C)C(=O)O)c(C)c1C [C, reference compound] ; EC50 = > 10 µM

Data point: COc1ccc(/C(C)=C/C=C/C(C)=C/C(=O)O)cc1OC [A, reference compound] ; EC50 = > 10 µM

Data point: `C/C(=C/C=C/C(C)=C/C(=O)O)c1cc(C(C)(C)C)cc(C(C)(C)C)c1` ; EC50 = 0.056 µM
